Measured inhibition, listed per entry for reference.
Target: cAMP-dependent protein kinase catalytic subunit PRKX (Homo sapiens);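 further: values are mean percent inhibition of PRKX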
Sequence (whole entry): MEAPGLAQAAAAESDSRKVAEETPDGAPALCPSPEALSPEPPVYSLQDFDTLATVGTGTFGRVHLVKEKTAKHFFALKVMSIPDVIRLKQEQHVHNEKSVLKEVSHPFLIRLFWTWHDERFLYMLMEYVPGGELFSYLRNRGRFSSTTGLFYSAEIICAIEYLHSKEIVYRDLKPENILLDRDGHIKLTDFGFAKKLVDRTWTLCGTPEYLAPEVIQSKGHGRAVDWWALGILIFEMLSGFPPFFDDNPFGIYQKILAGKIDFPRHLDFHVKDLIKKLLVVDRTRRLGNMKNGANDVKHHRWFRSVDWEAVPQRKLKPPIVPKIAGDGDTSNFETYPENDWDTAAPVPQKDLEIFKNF
Conditions: at 0.1 µM
Give the value, in units of %, as a plain number.

Answered examples (5):
Just so you know, measured inhibition for `CN(C)CCNC(=O)Nc1ccc(N(C)c2ccnc(Nc3ccc(CS(C)(=O)=O)cc3)n2)cc1` came out at 0.73

Just so you know, measured inhibition for `CS(=O)(=O)Nc1ccc(-c2cc(-c3ccccc3)cc(C(N)=O)c2N)cc1` came out at 1.16

Just so you know, measured inhibition for `FC(F)(F)CNc1nccc(-c2cnn3ncccc23)n1` came out at 1.1

Just so you know, measured inhibition for `Cc1c2ccc(N(C)c3ccnc(Nc4cccc(S(N)(=O)=O)c4)n3)cc2nn1C` came out at 2.29

Just so you know, measured inhibition for `CS(=O)(=O)Nc1ccc(-c2ccc3c(NC(=O)C4CC4)n[nH]c3c2)cc1` came out at 1.03

Others:
Just so you know, measured inhibition for `COc1cc(N2CCN(C(C)C)CC2)ccc1Nc1nc(Nc2cccc3ncccc23)c2cc[nH]c2n1` came out at 0.02

Just so you know, measured inhibition for `O=C(Nc1n[nH]c2nnc(-c3cccnc3)cc12)C1CC1` came out at -0.34

Just so you know, measured inhibition for `COc1c(C(N)=O)cc(-c2ccc(Cl)cc2)cc1-c1ccc(S(N)(=O)=O)cc1` came out at 1.69

Just so you know, measured inhibition for `COc1cc2c(cc1Nc1nc(Nc3cccc(F)c3C(N)=O)c3cc[nH]c3n1)N(C(=O)CN1CCN(C(C)C)CC1)CC2` came out at 2.44

Just so you know, measured inhibition for `COc1ccc(Nc2ncc(-c3ccccc3)o2)cc1OC` came out at -0.11

Just so you know, measured inhibition for `Fc1ccc(Nc2nccc(-c3c(-c4ccc(C(F)(F)F)cc4)nn4ncccc34)n2)cc1F` came out at 0.62

Just so you know, measured inhibition for `COc1ccc(-c2nn3ncccc3c2-c2ccnc(Nc3ccc(F)c(F)c3)n2)cc1` came out at 3.54

Just so you know, measured inhibition for `NS(=O)(=O)c1cccc(N/C=C2\C(=O)Nc3ccccc32)c1` came out at 1.79

Just so you know, measured inhibition for `N#Cc1ccc2c(-c3ccnc(NC4CC4)n3)c(-c3ccc(F)cc3)nn2c1` came out at 1.65

Just so you know, measured inhibition for `CCCNc1cccc(-n2ncc3c(N/N=C/c4ccncc4)ncnc32)c1` came out at 2.18

###

Measured inhibition, listed per entry for reference.
target: Rho-associated protein kinase 1 (Homo sapiens); settings: at 1 µM;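 further: reported values are mean percent inhibition of ROCK1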
Give the value, in units of %, as a plain number.

Just so you know, measured inhibition for CC1=C(C(=O)Nc2ccc3[nH]ncc3c2)C(c2ccc(F)cc2)N=C(c2ccc(C(F)(F)F)nc2)N1 (stereo unspecified) came out at 73.2

Others:
Just so you know, measured inhibition for `COc1cc(N2CCN(C(C)C)CC2)ccc1Nc1nc(Nc2cccc3ncccc23)c2cc[nH]c2n1` came out at 0.37

Just so you know, measured inhibition for `CCOc1ccc2c(-c3ccnc(Nc4cc(OC)cc(C(F)(F)F)c4)n3)cnn2n1` came out at -0.21

Just so you know, measured inhibition for `CCCNc1cccc(-n2ncc3c(N/N=C/c4ccncc4)ncnc32)c1` came out at 13.7

Just so you know, measured inhibition for `Fc1cccc(COc2ccc(Nc3ncncc3C#Cc3ccccc3)cc2Cl)c1` came out at 1.47

Just so you know, measured inhibition for `COC(=O)Nc1nc2ccc(Oc3ccc(NC(=O)Nc4cc(C(F)(F)F)ccc4F)cc3)cc2s1` came out at 1.94

Source: ChEMBL document CHEMBL1961873
